Entries and their nuclei count values follow.
# Protocol description: endothelial E-selectin expression blockers – imaging, HUVEC, immunofluorescence, MLSMR starter and 10KST1 sets, primary screen (AID 487);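 note: 100% = median nuclei count of all wells on the same plate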
# Test context: HUVEC TNFalpha-induced E-selectin immunofluorescence imaging, at 2 µM; measured here: cell number, toxicity
Your answer should be a number followed by the unit of measure.

Sample records with nuclei count:
1) COc1cccc(-c2nnc(SCC(=O)N3CCCc4ccccc43)o2)c1
109%
2) Cc1nc(C)c(C(=O)OCC(=O)N2CCN(c3ccccc3)CC2)s1
102%
3) Cn1c(=O)c2c(-c3ccncc3)c3c(nc2n(C)c1=O)-c1ccccc1C3=O
136%
4) CCOC(=O)N1CCN(C(=O)COc2cc(=O)n(C)c3ccccc23)CC1
118%
5) CCC1(C)Cc2c(C#N)c(N)n(-c3ccccc3)c(=O)c2CO1 (stereo unspecified)
93.4%
6) Cc1ccc(-n2c3c(cc(C(=O)O)c2=O)C(=O)CC(C)(C)C3)cc1
110%

So what's the measured nuclei count for this one? C=CCOC(=O)CC(NC(=O)c1ccccc1)c1ccccc1 (stereo unspecified)
133%

Quick one: nuclei count of Cc1onc(-c2c(F)cccc2Cl)c1C(=O)Nc1nc2c(s1)CCCC2 ?
77.9%

I'd like to know its nuclei count. The compound in question is COc1cc2c(cc1OC)-c1cc(OCc3cccnc3)nc(=O)n1CC2
116%
